# Format: physicochemical
# conditions used: Hexane, 298.15 K
assay endpoint: mole fraction solubility (x) (x · 10^4)
Report the value in x · 10^4 with no unit label.

Lookup: What value of mole fraction solubility (x) has been recorded for this entry: CN1CCc2c(c3cc(Cl)ccc3n2CCc2n[nH]c(=S)n2C)C1
Found: 6.39

Lookup: What value of mole fraction solubility (x) has been recorded for this entry: CN1CCc2c(c3cc(F)ccc3n2CCc2n[nH]c(=S)n2C)C1
Found: 4.47

###

# Assay type: physicochemical
# conditions used: Buffer pH 7.4, 298.15 K
Consider the following compounds; for each one, report its ΔGsol0, standard molar dissolution Gibbs energy.
Report the value in kcal/mol with no unit label.

Lookup: What value of ΔGsol0, standard molar dissolution Gibbs energy has been recorded for this entry: COc1ccc2c(c1)c1c(n2CCc2n[nH]c(=S)n2C)CCN(C)C1
Found: 7.07

Lookup: What value of ΔGsol0, standard molar dissolution Gibbs energy has been recorded for this entry: CN1CCc2c(c3cc(Cl)ccc3n2CCc2n[nH]c(=S)n2C)C1
Found: 7.34

Lookup: What value of ΔGsol0, standard molar dissolution Gibbs energy has been recorded for this entry: CN1CCc2c(c3cc(F)ccc3n2CCc2n[nH]c(=S)n2C)C1
Found: 6.84

Lookup: What value of ΔGsol0, standard molar dissolution Gibbs energy has been recorded for this entry: Cc1ccc2c(c1)c1c(n2CCc2n[nH]c(=S)n2C)CCN(C)C1
Found: 7.79

Lookup: What value of ΔGsol0, standard molar dissolution Gibbs energy has been recorded for this entry: CN1CCc2c(c3ccccc3n2CCc2n[nH]c(=S)n2C)C1
Found: 7.82

###

Consider the following compounds; for each one, report its A, parameter of the correlation equation lnx=A-B/T.
# Format: physicochemical
# conditions used: Hexane, 293.15–313.15 K

Lookup: What value of A, parameter of the correlation equation lnx=A-B/T has been recorded for this entry: Cc1ccc2c(c1)c1c(n2CCc2n[nH]c(=S)n2C)CCN(C)C1
Found: −1.39 ± 0.17

Lookup: What value of A, parameter of the correlation equation lnx=A-B/T has been recorded for this entry: COc1ccc2c(c1)c1c(n2CCc2n[nH]c(=S)n2C)CCN(C)C1
Found: −2.93 ± 0.14

Lookup: What value of A, parameter of the correlation equation lnx=A-B/T has been recorded for this entry: CN1CCc2c(c3cc(F)ccc3n2CCc2n[nH]c(=S)n2C)C1
Found: 1.09 ± 0.1

Lookup: What value of A, parameter of the correlation equation lnx=A-B/T has been recorded for this entry: CN1CCc2c(c3cc(Cl)ccc3n2CCc2n[nH]c(=S)n2C)C1
Found: 2.45 ± 0.12

Lookup: What value of A, parameter of the correlation equation lnx=A-B/T has been recorded for this entry: CN1CCc2c(c3ccccc3n2CCc2n[nH]c(=S)n2C)C1
Found: −1.25 ± 0.18

###

# Format: physicochemical
# conditions used: 1-octanol, 308.15 K
Threshold rule: mole fraction solubility (x) greater than or equal to 2 x · 10^4 is 1.0; below that, 0.0.

Lookup: Given CN1CCc2c(c3cc(F)ccc3n2CCc2n[nH]c(=S)n2C)C1 , state whether its mole fraction solubility (x) is at least 2 x · 10^4.
Found: 1.0

Lookup: Given CN1CCc2c(c3ccccc3n2CCc2n[nH]c(=S)n2C)C1 , state whether its mole fraction solubility (x) is at least 2 x · 10^4.
Found: 1.0

Lookup: Given Cc1ccc2c(c1)c1c(n2CCc2n[nH]c(=S)n2C)CCN(C)C1 , state whether its mole fraction solubility (x) is at least 2 x · 10^4.
Found: 0.0

Lookup: Given CN1CCc2c(c3cc(Cl)ccc3n2CCc2n[nH]c(=S)n2C)C1 , state whether its mole fraction solubility (x) is at least 2 x · 10^4.
Found: 1.0

Lookup: Given COc1ccc2c(c1)c1c(n2CCc2n[nH]c(=S)n2C)CCN(C)C1 , state whether its mole fraction solubility (x) is at least 2 x · 10^4.
Found: 0.0
